# Tested Target: T1, EsCas13d, nuclease-dead (Eubacterium siraeum, UniProt B0MS50, R295A;H300A;R849A;H854A)
# T1 sequence: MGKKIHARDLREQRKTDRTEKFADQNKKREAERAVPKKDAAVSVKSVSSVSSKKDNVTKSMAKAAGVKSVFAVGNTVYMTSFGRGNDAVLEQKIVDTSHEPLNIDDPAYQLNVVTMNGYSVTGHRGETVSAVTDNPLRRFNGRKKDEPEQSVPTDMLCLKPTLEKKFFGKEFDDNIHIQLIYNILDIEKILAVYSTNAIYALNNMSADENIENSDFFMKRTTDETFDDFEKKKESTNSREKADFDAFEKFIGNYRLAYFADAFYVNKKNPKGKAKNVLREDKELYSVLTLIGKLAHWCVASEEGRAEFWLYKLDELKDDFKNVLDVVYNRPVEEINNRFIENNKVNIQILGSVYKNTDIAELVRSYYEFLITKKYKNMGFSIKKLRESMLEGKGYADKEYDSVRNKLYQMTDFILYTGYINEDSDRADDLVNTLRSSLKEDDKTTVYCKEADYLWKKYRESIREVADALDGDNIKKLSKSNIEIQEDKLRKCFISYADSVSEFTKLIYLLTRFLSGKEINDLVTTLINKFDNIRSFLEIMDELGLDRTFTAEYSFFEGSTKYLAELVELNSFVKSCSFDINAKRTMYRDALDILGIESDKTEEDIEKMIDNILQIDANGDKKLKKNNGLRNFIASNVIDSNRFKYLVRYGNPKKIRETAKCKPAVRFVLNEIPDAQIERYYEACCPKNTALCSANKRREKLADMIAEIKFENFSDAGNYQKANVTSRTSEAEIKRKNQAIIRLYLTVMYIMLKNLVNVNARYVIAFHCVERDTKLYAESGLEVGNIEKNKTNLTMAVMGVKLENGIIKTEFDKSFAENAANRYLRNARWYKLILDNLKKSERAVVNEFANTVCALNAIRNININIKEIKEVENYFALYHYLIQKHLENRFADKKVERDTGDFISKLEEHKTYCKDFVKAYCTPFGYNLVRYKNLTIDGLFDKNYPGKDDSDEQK
# Protocol: crRNA (strand 1, pre-loaded); Mg2+; 40 mM Tris-HCl pH 7.5, 150 mM NaCl, 6 mM MgCl2, 1 mM DTT, 0.1% Tween-20, 0.2 mg/ml BSA; 25 C; 10 min per concentration, then washed
# Stated Conditions: tags: His6-TwinStrep-SUMO cleaved; N-terminal SNAP kept (SNAP-Surface 488); label: 3' end held by stalled T7 RNA polymerase

{"Binder": "target 2 MT 5'PFS GCC 3'PFS CGA (mixed) RNA 1: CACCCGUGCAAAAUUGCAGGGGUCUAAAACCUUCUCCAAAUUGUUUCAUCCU RNA 2: GGGAAUGGAUCCACAUCUACGAAUUCGCCAGGAUGAAACAAUUUGGAGAAGCGAAGAUCGGAAGAGCACACGU", "Quantity Unit": "nM", "Kd": 14}
{"Binder": "target 1 insU 3' of 4,insU 3' of 2 (mixed) RNA 1: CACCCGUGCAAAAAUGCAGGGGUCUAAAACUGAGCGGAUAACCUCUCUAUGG RNA 2: GGGAAUGGAUCCACAUCUACGAAUUCGUACCAUAGAGAGGUUAUCCGCUUCUACCGAGAUCGGAAGAGCACACGU", "Quantity Unit": "nM", "Kd": 9.5}
